Values from a collection of fitness landscapes (doi:10.1016/j.celrep.2020.107928)

Please provide measured one-hybrid fitness for binding parS DNA for the entries that follow.
B1: Caulobacter ParB omega fusion; a variant is named by its letters at X, in order, B8GW30 (parent)
chain: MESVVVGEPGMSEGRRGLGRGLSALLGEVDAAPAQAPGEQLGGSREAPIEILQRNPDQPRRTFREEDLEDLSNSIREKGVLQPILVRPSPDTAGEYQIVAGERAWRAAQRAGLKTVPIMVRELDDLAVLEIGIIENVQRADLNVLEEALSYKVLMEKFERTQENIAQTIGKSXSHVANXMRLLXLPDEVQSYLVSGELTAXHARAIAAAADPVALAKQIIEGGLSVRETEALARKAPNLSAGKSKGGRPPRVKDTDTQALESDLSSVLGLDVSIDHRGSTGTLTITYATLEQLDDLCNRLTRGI

Variants of: B1
assay-info: one-hybrid fitness for binding parS DNA (scaled: cognate 1, non-cognate 0); higher = stronger binding
details: with parS DNA site
The full ranking holds about 81,000 sequences; the median of “one-hybrid fitness for binding parS DNA” is about -0.17, and the highest 2% start at about 0.51. Only a selection was taken, and the highest values are over-represented in it overall.

Value lookup for one-hybrid fitness for binding parS DNA; key = RDNA
≤ 0.2

Can you check RNYS next?
0.85

Now give it for RTDC too.
0.887

Can you check RTDK next?
≤ 0.2

Also need RNSP , thanks.
≤ 0.2

Entry to check: ALYA
≤ 0.2

Also, RNSN please.
0.385

Now this one: NYTA
≤ 0.2

Then what about the variant RTWR ?
0.207

And the next one, MKRV ?
≤ 0.2

And what about the variant DTTA ?
≤ 0.2

// repeat for RNQP and report
≤ 0.2

Same thing, different variant: RNGD
≤ 0.2

Now consider GPSP .
≤ 0.2

And what about the variant RNYH ?
≤ 0.2

Query PNRV next
≤ 0.2

How about RQTA ?
0.574

Field entry: RLTC
1

Further, for RNGS ?
0.873

# repeat for RNQH
≤ 0.2

Follow-up item: RSLG
0.987

Likewise for QRMV ?
≤ 0.2

And the next one, QWPT ?
≤ 0.2

Can you check RLMI next?
≤ 0.2

Also NRTA , if possible.
≤ 0.2

Now this one: RFTN
0.405

Record: RLNA
0.62

Now give it for NPTS too.
≤ 0.2

Field entry: WCDG
≤ 0.2

Now the variant CKQG
≤ 0.2

Lookup TITP
≤ 0.2

Try this variant too: NLNA
≤ 0.2

// next record YLEP
≤ 0.2

Same for RTQC
0.974

Same again, this time with RTQP
≤ 0.2

Same thing, different variant: RTCC
0.959

Another: KQTA
≤ 0.2

What about this variant? NQTA
≤ 0.2

Request: RYTA
0.582

Another variant to check: RTQN
0.442

Same for RTWC
0.985

Record: RPLG
≤ 0.2

Please answer likewise for DLDA
≤ 0.2

Item: RLDA
0.588

Same for MALS
≤ 0.2

Would you mind doing EYTA as well?
≤ 0.2
